# Test system: HBV
# PROCEDURE_TEXT: HBV inhibition assay: anti-HBV activity in vitro in HepG2.2.15 cells (extracellular HBV DNA by qPCR)
# Type: cell-based
# CONDITION_SET: Hepatitis B virus, 120 h, five days after compound treatment, extracellular HBV DNA in culture supernatant by qPCR, concentration at which HBV replication is inhibited by 50%
One threshold, 30 nM, splits the recorded EC50 values: lower ones are Condition met, equal or higher ones are Condition not met.

Input line: Threshold test, EC50 < 30 nM: Cc1nnc(C2(C)CC(=O)N(c3cnn4c3CN(C(=O)Nc3cc(F)c(F)c(F)c3)[C@@H](C)C4)C2)o1 (stereo partly shown) [Example 403]
Output line: Condition not met

Input line: Threshold test, EC50 < 30 nM: CC1Cn2ncc(-c3ccc(F)cc3F)c2CN1C(=O)Nc1cc(F)c(F)c(F)c1 (stereo not shown) [Example 178]
Output line: Condition met

Input line: Threshold test, EC50 < 30 nM: C[C@H]1Cn2ncc(N3CC(C)(C)COC3=O)c2CN1C(=O)Nc1cc(F)c(F)c(F)c1 [Example 294]
Output line: Condition met

Input line: Threshold test, EC50 < 30 nM: C[C@H]1Cn2ncc(N3CC4(CCC4)OC3=O)c2CN1C(=O)Nc1cc(F)c(F)c(F)c1 [Example 332]
Output line: Condition met

Input line: Threshold test, EC50 < 30 nM: C[C@@H]1CN(C(=O)C2CC(=O)N(c3cnn4c3CN(C(=O)Nc3cc(F)c(F)c(F)c3)[C@@H](C)C4)C2)C[C@@H](C)O1 (stereo partly shown) [Example 396]
Output line: Condition not met

Input line: Threshold test, EC50 < 30 nM: C[C@H]1Cn2ncc(N3CCCC3=O)c2CN1C(=O)Nc1cc(F)c(F)c(Cl)c1 [Example 231]
Output line: Condition met

Input line: Threshold test, EC50 < 30 nM: C[C@H]1Cn2ncc(N3CCOCC3=O)c2CN1C(=O)Nc1cc(F)c(F)c(C(F)F)c1 [Example 271]
Output line: Condition not met

Input line: Threshold test, EC50 < 30 nM: O=C(Nc1ccc(F)c(Cl)c1)N1CCn2ncc(-c3ccc(F)cc3)c2C1 [Example 21]
Output line: Condition not met

Input line: Threshold test, EC50 < 30 nM: C[C@@H]1CN(C(=O)C2CC(=O)N(c3cnn4c3CN(C(=O)Nc3cc(F)c(F)c(F)c3)[C@@H](C)C4)C2)CCO1 (stereo partly shown) [Example 394]
Output line: Condition not met

Input line: Threshold test, EC50 < 30 nM: O=C(Nc1ccc(F)c(Cl)c1)N1CCn2nnc(-c3ccc(F)cc3F)c2C1 [Example 155]
Output line: Condition not met

Input line: Threshold test, EC50 < 30 nM: CC1Cn2ncc(-c3ccc(F)cn3)c2CN1C(=O)Nc1cc(F)c(F)c(Cl)c1 (stereo not shown) [Example 158]
Output line: Condition not met

Input line: Threshold test, EC50 < 30 nM: C[C@H]1Cn2ncc(N3CC(C(=O)N(C)c4ncco4)CC3=O)c2CN1C(=O)Nc1cc(F)c(F)c(F)c1 (stereo partly shown) [Example 399]
Output line: Condition met

Input line: Threshold test, EC50 < 30 nM: C[C@H]1Cn2ncc(N3CC(C(F)(F)F)CC3=O)c2CN1C(=O)Nc1ccc(F)c(Cl)c1 (stereo partly shown) [Example 255]
Output line: Condition met

Input line: Threshold test, EC50 < 30 nM: CC1Cn2ncc(-c3ccc(F)cc3)c2CN1C(=O)Nc1cc(F)c(F)c(F)c1 (stereo not shown) [Example 53]
Output line: Condition not met

Input line: Threshold test, EC50 < 30 nM: C[C@H]1Cn2ncc(N3CCCC3=O)c2CN1C(=O)Nc1ccc(F)c(Cl)c1 [Example 355]
Output line: Condition not met

Input line: Threshold test, EC50 < 30 nM: O=C(Nc1ccc(F)c(C(F)(F)F)c1)N1CCn2ncc(-c3ccccc3F)c2C1 [Example 34]
Output line: Condition not met
